Experiment: chemical genetic growth profiling, strain panel (AID 1159580);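 further: tested at 20 µM; growth read once vehicle control cultures reached saturation at 30 °C; lower values mean less growth of the strain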
Details: S. cerevisiae deletion strains, growth OD, locus YMR307W, strain GAS1, active compounds read low
Out of some 5,500 compounds screened, about 2,000 (36%) were called active. Not shown: some 18% with an inconclusive outcome. This is one part of the list.
Please note: normalized growth exactly at 1 is condition not met. Only values below 1 get condition met.

smilesCode | group
Oc1c(Cl)cc(Cl)cc1Sc1cc(Cl)cc(Cl)c1O | condition not met
CC(=O)c1ccc(O)c(CC=C(C)C)c1 | condition met
CC(=O)c1cc(CC=C(C)C)c(O)c(CC=C(C)C)c1 | condition met
NC(=O)NC(=O)Cc1ccccc1 | condition not met
O=C(OCc1ccccc1)c1ccccc1 | condition not met
O=C(O)C1=CCCNC1 | condition not met
N[C@@H](CCC(=O)N[C@@H](CS)C(=O)NCC(=O)O)C(=O)O | condition not met
